Catalogue of compounds with associated GI50
Organism: Homo sapiens
Test: Cytotoxicity against renal SN12C
Type: functional
Field format: number, assumed µM, no unit text.

Use the examples below as a reference point.
- query smiles: "CCCCCCn1c(=O)oc2ccc(NCc3cc(O)ccc3O)cc2c1=O"
  quantity unit: "µM"
  GI50: 4.2
- query smiles: "O=C1c2c(O)ccc(NCc3cc(O)ccc3O)c2CN1CCc1ccc(F)cc1"
  quantity unit: "µM"
  GI50: 16
- query smiles: "O=c1oc2ccc(NCc3cc(O)ccc3O)cc2c(=O)n1CCc1ccccc1"
  quantity unit: "µM"
  GI50: 9.6

INPUT: Return reported GI50; argument: `O=C1c2c(O)ccc(NCc3cc(O)ccc3O)c2CN1CCc1ccccc1`
OUTPUT: 12.9

INPUT: Return reported GI50; argument: `O=c1oc2ccc(NCc3cc(O)ccc3O)cc2c(=O)n1CCc1ccc(F)cc1`
OUTPUT: 6.6

* * *

Organism: Homo sapiens
Experiment: Cytotoxicity against melanoma UACC-62
Format: functional
Catalogue of compounds with associated log10 of GI50
Please be aware that the numbers have been log10-transformed from GI50 in µM.

Use the examples below as a reference point.
- query smiles: "Oc1ccc(O)c(CNc2ccc(O)c(/C=C/CCc3ccccc3)c2)c1"
  result value: 1.26
- query smiles: "O=c1oc2ccc(NCc3cc(O)ccc3O)cc2c(=O)n1CCc1ccccc1"
  result value: 0.78
- query smiles: "CCCCCCNC(=O)c1cc(NCc2cc(O)ccc2O)ccc1O"
  result value: 1.08
- query smiles: "Oc1ccc(O)c(CNc2ccc(O)c(/C=C\\CCc3ccccc3)c2)c1"
  result value: 1.20
- query smiles: "COc1ccc(NCc2cc(O)ccc2O)c2c1C(=O)N(CCc1ccc(F)cc1)C2"
  result value: 1.28
- query smiles: "O=c1oc2ccc(NCc3cc(O)ccc3O)cc2c(=O)n1CCc1ccc(F)cc1"
  result value: 0.85
- query smiles: "O=C1c2c(O)ccc(NCc3cc(O)ccc3O)c2CN1CCc1ccccc1"
  result value: 1.00
- query smiles: "O=C1c2c(O)ccc(NCc3cc(O)ccc3O)c2CN1CCc1ccc(F)cc1"
  result value: 1.12

INPUT: Return reported log10 of GI50; argument: `O=C(NCCc1ccc(F)cc1)c1cc(NCc2cc(O)ccc2O)ccc1O`
OUTPUT: -0.39

INPUT: Return reported log10 of GI50; argument: `CCCCCCn1c(=O)oc2ccc(NCc3cc(O)ccc3O)cc2c1=O`
OUTPUT: 0.51

INPUT: Return reported log10 of GI50; argument: `O=C(NCCc1ccccc1)c1cc(NCc2cc(O)ccc2O)ccc1O`
OUTPUT: 1.15

* * *

Species: Homo sapiens
Experiment: Cytotoxicity against ovarian OVCAR-3
Format: functional
Catalogue of molecules with associated GI50
Answer format reminder: number followed by unit.

- query smiles: "Oc1ccc(O)c(CNc2ccc(O)c(/C=C/CCc3ccccc3)c2)c1"
  result value: "20.4 µM"
- query smiles: "CCCCCCn1c(=O)oc2ccc(NCc3cc(O)ccc3O)cc2c1=O"
  result value: "1.7 µM"
- query smiles: "CCCCCCNC(=O)c1cc(NCc2cc(O)ccc2O)ccc1O"
  result value: "4 µM"
- query smiles: "O=C(NCCc1ccccc1)c1cc(NCc2cc(O)ccc2O)ccc1O"
  result value: "7.7 µM"
- query smiles: "Oc1ccc(O)c(CNc2ccc(O)c(/C=C\\CCc3ccccc3)c2)c1"
  result value: "21.9 µM"

INPUT: Return reported GI50; argument: `O=c1oc2ccc(NCc3cc(O)ccc3O)cc2c(=O)n1CCc1ccccc1`
OUTPUT: 3.6 µM

INPUT: Return reported GI50; argument: `O=C1c2c(O)ccc(NCc3cc(O)ccc3O)c2CN1CCc1ccc(F)cc1`
OUTPUT: 8.8 µM

Data origin: ChEMBL document CHEMBL1135632
